- Assay Comment: MTT cell viability assay in Huh-7 cells
- Condition Notes: human
Entries and their viability at 24 h, 20 µM
// return numeric value only (unit: %, not printed)

Compound | viability at 24 h, 20 µM, %
CC(c1ccccc1)N(Cc1cccc(F)c1)Cc1nc(C(=O)NCCN2CCOCC2)co1 (centres unmarked) | 94

// below: viability at 24 h, 20 µM requested for another compound
Query: What value of measured viability at 24 h, 20 µM is listed for "O=C(NCc1cccnc1)c1coc(CN(Cc2ccoc2)Cc2cccc(C(F)(F)F)c2)n1" ?
Reply: 94

----------
- Assay Comment: Cell viability in RD cells
- Format: cell-based
- Condition Notes: human, RD rhabdomyosarcoma cells electroporated with CHIKV-Fluc RNA
Entries and their viability at 24 h, 100 µM
// return numeric value only (unit: %, not printed)

Compound | viability at 24 h, 100 µM [%]
O=C(NCc1cccnc1)c1coc(CN(Cc2ccoc2)Cc2cccc(C(F)(F)F)c2)n1 | 70

// below: viability at 24 h, 100 µM requested for another compound
Query: What value of measured viability at 24 h, 100 µM is listed for CC(c1ccccc1)N(Cc1cccc(F)c1)Cc1nc(C(=O)NCCN2CCOCC2)co1 (centres unmarked) ?
Reply: 65

----------
- Assay Comment: MTT cell viability assay in Huh-7 cells
- Condition Notes: human
Test Readout: CC50 at 24 h
Write your answer as a measured quantity: the number, then the unit.

Compound | CC50 at 24 h
CC(c1ccccc1)N(Cc1nc(C(=O)NCCN2CCOCC2)co1)Cc1ccc(Cl)cc1Cl (stereo not shown) | 27.5 µM
CC(c1ccccc1)N(Cc1nc(C(=O)NCCN2CCOCC2)co1)Cc1ccccc1F (stereo not shown) | 40.5 µM
COc1cccc(CN(Cc2nc(C(=O)NCCN3CCOCC3)co2)C(C)c2ccccc2)c1 (stereo not shown) | 45.2 µM
O=C(NCc1cccnc1)c1coc(CN(Cc2ccccc2)Cc2ccc3c(c2)OCO3)n1 | 18.1 µM
O=C(NCc1cccnc1)c1coc(CN(Cc2ccoc2)Cc2cccc(C(F)(F)F)c2)n1 | 36.8 µM
CC(c1ccccc1)N(Cc1cccc(F)c1)Cc1nc(C(=O)NCCN2CCOCC2)co1 (stereo not shown) | 38.9 µM

// below: CC50 at 24 h requested for another compound
Query: What value of measured CC50 at 24 h is listed for CC(c1ccccc1)N(Cc1cccc(Cl)c1)Cc1nc(C(=O)NCCN2CCOCC2)co1 (stereo not shown) ?
Reply: 27.4 µM

----------
- Test system: CHIKV-Fluc SGR (CHIKV subgenomic replicon) in Huh-7 cells
- Assay Comment: CHIKV-Fluc SGR replication assay (luciferase) in Huh-7 cells
- Condition Notes: Huh-7, CHIKV-Fluc SGR, 24 h post treatment
Test Readout: EC50 (µM)
// return numeric value only (unit: µM, not printed)

Query: What value of measured EC50 is listed for "O=C(NCc1cccnc1)c1coc(CN(Cc2ccoc2)Cc2cccc(C(F)(F)F)c2)n1" ?
Reply: 11.6

----------
Entries and their SI (CC50/EC50)
- Tested on: CHIKV-Fluc SGR (CHIKV subgenomic replicon) in Huh-7 cells
- Assay Comment: CHIKV-Fluc SGR replication assay (luciferase) in Huh-7 cells
- Condition Notes: Huh-7

Please review the entries below; each comes with its answer.
Compound | Test Readout | Measured Result
CC(c1ccccc1)N(Cc1cccc(Cl)c1)Cc1nc(C(=O)NCCN2CCOCC2)co1 (stereo not shown) [Compound 2C5] | SI (CC50/EC50) | 1.0
O=C(NCc1cccnc1)c1coc(CN(Cc2ccoc2)Cc2cccc(C(F)(F)F)c2)n1 [Compound C13] | SI (CC50/EC50) | 3.2
CC(c1ccccc1)N(Cc1nc(C(=O)NCCN2CCOCC2)co1)Cc1ccc(Cl)cc1Cl (stereo not shown) [Compound 1C5] | SI (CC50/EC50) | 1.4
COc1cccc(CN(Cc2nc(C(=O)NCCN3CCOCC3)co2)C(C)c2ccccc2)c1 (stereo not shown) [Compound 4C5] | SI (CC50/EC50) | 1.5
CC(c1ccccc1)N(Cc1cccc(F)c1)Cc1nc(C(=O)NCCN2CCOCC2)co1 (stereo not shown) [Compound C5] | SI (CC50/EC50) | 3.1

Query: Find the measured SI (CC50/EC50): item CC(c1ccccc1)N(Cc1nc(C(=O)NCCN2CCOCC2)co1)Cc1ccccc1F (stereo not shown) [Compound 3C5] , target or system CHIKV-Fluc SGR (CHIKV subgenomic replicon) in Huh-7 cells.
Reply: 1.5

Query: Find the measured SI (CC50/EC50): item O=C(NCc1cccnc1)c1coc(CN(Cc2ccccc2)Cc2ccc3c(c2)OCO3)n1 [Compound 1C13] , target or system CHIKV-Fluc SGR (CHIKV subgenomic replicon) in Huh-7 cells.
Reply: 2.6
